Protocol Details: self-splicing fitness, log relative to wild type (ln ratio); higher = more splicing; Tetrahymena group I intron in knt gene, E. coli kanamycin selection, DiMSum; sequences stand for … in CUCUCU…GGAGGGAAAAGUUAUCAGGCAUGCACCUGGUAGCUAGUCUUUAAACCAAUAGAUUGCAUCGGUUUAAAAGGCAAGACCGUCAAAUUGCGGGAAAGGGGUCAACAGCCGUUCAGUACCAAGUCUCAGGGGAAACUUUGAGAUGGCCUUGCAAAGGGUAUGGUAAUAAGCUGACGGACAUGGUCCUAACCACGCAGCCAAGUCCUAAGUCAACAGAUCUUCUGUUGAUAUGGAUGCAGUUCACAGACUAAAUGUCGGUCGGGGAAGAUGUAUUCUUCUCAUAAGAUAUAGUCGGACCUCUCCUUAAUGGGAGCUAGCGGAUGAAGUGAUGCAACACUGGAGCCGCUGGGAACUAAUUUGUAUGCGAAAGUAUAUUGAUUAGUUUUGGAGUACUCGUGGUCG;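 further: selection with 25 µg/mL kanamycin versus none on LB agar overnight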
Test Parameters: 30 °C
1 means recorded self-splicing fitness (ln) is -3 or above; -1 means it is below -3.

See these solved cases before continuing.
>>> answer_label("GGUUAGCAAUAUUACGGCGC")
1
>>> answer_label("UCUCAGCAAUAUUACGUACA")
1
>>> answer_label("AAUAAGCAAUAUUACGACCG")
1
>>> answer_label("GGGCAGCAAUAUUACGGUAU")
1
>>> answer_label("AUCUAGCAAUAUUACGCAAA")
1

Q: Exam item: decide whether the reported self-splicing fitness (ln) for `UCUAAGCAAUAUUACGUUCU` is at least -3.
Ans: -1

Q: Exam item: decide whether the reported self-splicing fitness (ln) for `AGCAAGCAAUAUUACGAAGU` is at least -3.
Ans: -1

Q: Exam item: decide whether the reported self-splicing fitness (ln) for `UUGCAGCAAUAUUACGUGUA` is at least -3.
Ans: 1

Q: Exam item: decide whether the reported self-splicing fitness (ln) for `UACAAGCAAUAUUACGAGAA` is at least -3.
Ans: 1

Q: Exam item: decide whether the reported self-splicing fitness (ln) for `ACAAAGCAAUAUUACGAACU` is at least -3.
Ans: 1

Provenance of the data: the supplement of paper PMC7877785
